Biological target: T1, 4H1594-AA
T1 chain: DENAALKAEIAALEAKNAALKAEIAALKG
Assay: two-hybrid library CCmax;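 also: natural log of median RNA to DNA barcode read ratio; higher means stronger binding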
Conditions: mean of both orientations
measured.property: interaction score
Give the figure only, with no unit attached.

Answered examples (4):
- binder: "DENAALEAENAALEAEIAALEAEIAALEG [4H1153-AA]"
  measured.property: "interaction score"
  result.number: -1.13
- binder: "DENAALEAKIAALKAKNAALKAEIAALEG [4H1401-AA]"
  measured.property: "interaction score"
  result.number: -0.109
- binder: "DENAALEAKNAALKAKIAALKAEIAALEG [4H1513-AA]"
  measured.property: "interaction score"
  result.number: -1.55
- binder: "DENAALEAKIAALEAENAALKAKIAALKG [4H1310-AA]"
  measured.property: "interaction score"
  result.number: 1.18

## Input Param item = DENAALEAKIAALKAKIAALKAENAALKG [4H1388-AA] ; retrieve measured interaction score.
## Output -1.66

## Input What would you report for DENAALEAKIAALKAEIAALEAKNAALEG [4H1351-AA] ?
## Output -1.24

## Input What would you report for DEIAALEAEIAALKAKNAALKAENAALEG [4H123-AA] ?
## Output -1.9

## Input What would you report for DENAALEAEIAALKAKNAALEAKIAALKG [4H1142-AA] ?
## Output 0.842
